- experimentalSetup: 313.15 K; 101.33 kPa; Liquid; Pycnometric method
measuredQuantity: mass density (kg/m3)
// return numeric value only (unit: kg/m3, not printed)

Known results for compounds:
[ask] # lookup: mass density of COC(=O)c1ccccc1 [methyl benzoate]
[reply] 1069.2

[ask] Thanks! And CC(=O)OCCC(C)C [3-methylbutyl ethanoate] ?
[reply] 852.8

[ask] Now consider Cc1ccccc1C [1,2-dimethylbenzene] .
[reply] 863.3

[ask] Follow-up item: Cc1ccc(C)cc1 [1,4-dimethylbenzene]
[reply] 843.5

Further cases:
[ask] Record request: mass density value, item Cc1cccc(C)c1 [1,3-dimethylbenzene]
[reply] 847.1
